- ASSAY COMMENT: Particle characteristics of LNPs containing EGFP mRNA and novel ionizable lipids
- Assay type: physicochemical
- ASSAY CONTEXT: Table 22; EGFP mRNA LNP 1.6:54.6:32.8:10.9
Below, each entry is listed alongside its reported Final Product Z-avg.
Note: unit nm is implicit; provide only the numeric part.

[
  {
    "COMPOUND": "CCCCCCCCCCC(CCCCCCC(=O)OCC(CCCCCC)CCCCCCCC)N(CCCCCCCCCC)C(=O)CCN(C)C (stereo not shown) [Compound 107]",
    "Final Product Z-avg (nm)": 76
  },
  {
    "COMPOUND": "CCCCCCCCCCN(C(=O)CCCN(C)C)C(CCCCCCCCC)CCCCC(F)(F)C(=O)OC(CCCCC)CCCCC (stereo not shown) [Compound 108]",
    "Final Product Z-avg (nm)": 80
  },
  {
    "COMPOUND": "CCCCCCCCCCC(CCCCCCC(=O)OCCC(CCCCCC)CCCCCC)N(CCCCCCCCCC)C(=O)OCCCN(C)C (stereo not shown) [Compound 105]",
    "Final Product Z-avg (nm)": 82
  },
  {
    "COMPOUND": "CCCCCCCCCCC(CCCCCCCC(=O)OCC(CCCCCC)CCCCCCCC)N(CCCCCCCCCC)C(=O)CCN(C)C (stereo not shown) [Compound 119]",
    "Final Product Z-avg (nm)": 73
  }
]

Need Final Product Z-avg of CCCCCCCCCCN(C(=O)CCCN(C)C)C(CCCCCCCCC)CCCCCCC(F)C(=O)OC(CCCCCCCC)CCCCCCCC (stereo not shown) [Compound 115] , thanks.
72

I would be grateful if you could share the reported Final Product Z-avg for CCCCCCCCCCN(C(=O)CCCN(C)C)C(CCCCCCCCC)CCCCC(F)(F)C(=O)OC(CCCCCCCC)CCCCCCCC (stereo not shown) [Compound 110] .
67

What does the data say about its Final Product Z-avg? Entry: CCCCCCCCCCN(C(=O)CCCN(C)C)C(CCCCCCCCC)CCCCCCC(F)C(=O)OC(CCCCC)CCCCC (stereo not shown) [Compound 112]
82
